The origin of these recorded values is patent US20210130473A1.

Molecular target: T1, human ASGR1 (asialoglycoprotein receptor 1) on cells (human, UniProt P07306 1-291)
T1 construct: whole, on cells; also called HepG2 cells; CHO-S cells transfected with human ASGR1 full length DNA
T1 sequence (looked up): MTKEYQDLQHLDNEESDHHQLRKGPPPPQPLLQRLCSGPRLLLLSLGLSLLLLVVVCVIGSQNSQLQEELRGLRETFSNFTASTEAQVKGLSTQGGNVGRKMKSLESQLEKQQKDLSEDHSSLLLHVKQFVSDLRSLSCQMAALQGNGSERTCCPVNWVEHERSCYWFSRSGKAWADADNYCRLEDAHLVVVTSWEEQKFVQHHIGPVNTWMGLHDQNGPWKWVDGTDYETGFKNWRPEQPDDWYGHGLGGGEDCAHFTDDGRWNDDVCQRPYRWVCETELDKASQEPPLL
Test: Guava flow cytometry screen on HepG2 cells

{"binder": "hzL4L-2 (antibody, IgG1, V domains shown, IgG1, kappa) VH: QVQLQESGPGLVKPSQTLSLTCTVSGGSITSDYAWNWIRQHPGKGLEWIGYISYSGSTRYNPSLKSRISITRDTSKNQFSLKLSSVTAADTAVYYCARRYRYDEGYGMDYWGQGTTVTVSS VL: DIQMTQSPSSLSASVGDRVTITCRASENIYSNLAWYQQKPGKAPKLLIYAATNLADGVPSRFSGSGSGTDFTLTISSLQPEDFATYYCQHFWGTPPWTFGGGTKVEIK", "binding result": "binds"}
{"binder": "hzL4L-10 (antibody, IgG1, V domains shown, IgG1, kappa) VH: QVQLQESGPGLVKPSQTLSLTCTVSGYSITSDYAWNWIRQHPGKGLEWIGYISYSGSTRYNPSLKSRISITRDTSKNQFSLKLSSVTAADTAVYYCARRYRYDEGYGMDYWGQGTTVTVSS VL: DIQMTQSPSSLSASVGDRVTITCRASENIYSNLAWYQQKPGKAPKLLIYAATNLASGVPSRFSGSGSGTDFTLTISSLQPEDFATYYCQHFWGTPPWTFGGGTKVEIK", "binding result": "binds"}
{"binder": "hzL4L-5 (antibody, IgG1, V domains shown, IgG1, kappa) VH: QVQLQESGPGLVKPSQTLSLTCTVSGYSISSDYAWNWIRQHPGKGLEWIGYISYSGSTRYNPSLKSRISITRDTSKNQFSLKLSSVTAADTAVYYCARRYRYDEGYGMDYWGQGTTVTVSS VL: DIQMTQSPSSLSASVGDRVTITCRASENIYSNLAWYQQKPGKAPKLLIYAATNLADGVPSRFSGSGSGTDFTLTISSLQPEDFATYYCQHFWGTPPWTFGGGTKVEIK", "binding result": "binds"}
